assay: Inhibition of Plasmodium falciparum falcipain-2 after 12 hrs by fluorescence spectroscopy-based on-bead assay; set-up: concentration or dose not given beside the values; details: concentration not given here
Peptide text beside a SMILES is read from it.
REPORTED_PROPERTY: inhibition (%)

COMPOUND	REPORTED_PROPERTY	RECORDED_NUMBER
CC(C)C[C@H](NC(=O)[C@H](Cc1ccccc1)NC(=O)/C=C/C(=O)N[C@@H](C)C(=O)NCC(=O)N[C@@H](Cc1ccccc1)C(=O)O)C(=O)N[C@@H](C)C(=O)N[C@H](C(N)=O)C(C)C (HELM PEPTIDE1{[C[C@H](NC(=O)/C=C/C(=O)[*:2])C(=O)NCC(=O)N[C@@H](Cc1ccccc1)C(=O)O].F.L.A.V.[am]}$$$$V2.0)	inhibition	45
CC(=O)NC[C@H](NC(=O)/C=C/C(=O)N[C@@H](C)C(=O)NCC(=O)N[C@@H](Cc1ccccc1)C(=O)O)C(=O)N[C@@H](CC(C)C)C(=O)N[C@H](C(=O)N[C@H](C(N)=O)C(C)C)C(C)C (HELM PEPTIDE1{[C[C@H](NC(=O)/C=C/C(=O)[*:2])C(=O)NCC(=O)N[C@@H](Cc1ccccc1)C(=O)O].[O=C([C@H](CN[*:3])N[*:1])[*:2]].L.V.V.[am]}|PEPTIDE2{[ac]}$PEPTIDE1,PEPTIDE2,2:R3-1:R2$$$V2.0)	inhibition	35
CC[C@H](C)[C@H](NC(=O)[C@H](CNC(C)=O)NC(=O)/C=C/C(=O)NCC(=O)NCC(=O)N[C@@H](Cc1ccccc1)C(=O)O)C(=O)N[C@@H](C)C(=O)N[C@H](C(N)=O)C(C)C (HELM PEPTIDE1{[O=C(/C=C/C(=O)[*:2])NCC(=O)NCC(=O)N[C@@H](Cc1ccccc1)C(=O)O].[O=C([C@H](CN[*:3])N[*:1])[*:2]].I.A.V.[am]}|PEPTIDE2{[ac]}$PEPTIDE1,PEPTIDE2,2:R3-1:R2$$$V2.0)	inhibition	29
CC[C@H](C)[C@H](NC(=O)[C@H](CCC(N)=O)NC(=O)/C=C/C(=O)NCC(=O)NCC(=O)N[C@@H](Cc1ccccc1)C(=O)O)C(=O)N[C@@H](CC(C)C)C(=O)N[C@H](C(N)=O)C(C)C (HELM PEPTIDE1{[O=C(/C=C/C(=O)[*:2])NCC(=O)NCC(=O)N[C@@H](Cc1ccccc1)C(=O)O].Q.I.L.V.[am]}$$$$V2.0)	inhibition	44
CC(C)C[C@H](NC(=O)[C@H](Cc1ccccc1)NC(=O)[C@H](Cc1ccccc1)NC(=O)/C=C/C(=O)N[C@@H](C)C(=O)NCC(=O)N[C@@H](Cc1ccccc1)C(=O)O)C(=O)N[C@H](C(N)=O)C(C)C (HELM PEPTIDE1{[C[C@H](NC(=O)/C=C/C(=O)[*:2])C(=O)NCC(=O)N[C@@H](Cc1ccccc1)C(=O)O].F.F.L.V.[am]}$$$$V2.0)	inhibition	47
CC(C)C[C@H](NC(=O)[C@@H](NC(=O)[C@H](CC(N)=O)NC(=O)/C=C/C(=O)NCC(=O)NCC(=O)N[C@@H](Cc1ccccc1)C(=O)O)C1CCCCC1)C(=O)N[C@H](C(N)=O)C(C)C (HELM PEPTIDE1{[O=C(/C=C/C(=O)[*:2])NCC(=O)NCC(=O)N[C@@H](Cc1ccccc1)C(=O)O].N.[O=C([C@@H](N[*:1])C1CCCCC1)[*:2]].L.V.[am]}$$$$V2.0)	inhibition	45
CC(=O)NC[C@H](NC(=O)/C=C/C(=O)N[C@@H](C)C(=O)NCC(=O)N[C@@H](Cc1ccccc1)C(=O)O)C(=O)N[C@@H](Cc1ccccc1)C(=O)N[C@@H](CC(C)C)C(=O)N[C@H](C(N)=O)C(C)C (HELM PEPTIDE1{[C[C@H](NC(=O)/C=C/C(=O)[*:2])C(=O)NCC(=O)N[C@@H](Cc1ccccc1)C(=O)O].[O=C([C@H](CN[*:3])N[*:1])[*:2]].F.L.V.[am]}|PEPTIDE2{[ac]}$PEPTIDE1,PEPTIDE2,2:R3-1:R2$$$V2.0)	inhibition	43
CC(C)[C@H](NC(=O)[C@H](C)NC(=O)[C@H](Cc1ccccc1)NC(=O)[C@H](C)NC(=O)/C=C/C(=O)N[C@@H](C)C(=O)NCC(=O)N[C@@H](Cc1ccccc1)C(=O)O)C(N)=O (HELM PEPTIDE1{[C[C@H](NC(=O)/C=C/C(=O)[*:2])C(=O)NCC(=O)N[C@@H](Cc1ccccc1)C(=O)O].A.F.A.V.[am]}$$$$V2.0)	inhibition	51
CC(=O)NC[C@H](NC(=O)/C=C/C(=O)NCC(=O)NCC(=O)N[C@@H](Cc1ccccc1)C(=O)O)C(=O)N[C@@H](Cc1ccccc1)C(=O)N[C@@H](C)C(=O)N[C@H](C(N)=O)C(C)C (HELM PEPTIDE1{[O=C(/C=C/C(=O)[*:2])NCC(=O)NCC(=O)N[C@@H](Cc1ccccc1)C(=O)O].[O=C([C@H](CN[*:3])N[*:1])[*:2]].F.A.V.[am]}|PEPTIDE2{[ac]}$PEPTIDE1,PEPTIDE2,2:R3-1:R2$$$V2.0)	inhibition	45
CC(C)C[C@H](NC(=O)[C@H](C)NC(=O)/C=C/C(=O)NCC(=O)NCC(=O)N[C@@H](Cc1ccccc1)C(=O)O)C(=O)N[C@@H](C)C(=O)N[C@H](C(N)=O)C(C)C (HELM PEPTIDE1{[O=C(/C=C/C(=O)[*:2])NCC(=O)NCC(=O)N[C@@H](Cc1ccccc1)C(=O)O].A.L.A.V.[am]}$$$$V2.0)	inhibition	57
CC(C)C[C@H](NC(=O)[C@H](CCC(N)=O)NC(=O)/C=C/C(=O)NCC(=O)NCC(=O)N[C@@H](Cc1ccccc1)C(=O)O)C(=O)N[C@H](C(=O)N[C@H](C(N)=O)C(C)C)C(C)C (HELM PEPTIDE1{[O=C(/C=C/C(=O)[*:2])NCC(=O)NCC(=O)N[C@@H](Cc1ccccc1)C(=O)O].Q.L.V.V.[am]}$$$$V2.0)	inhibition	54
